# Target under test: purified human 20S proteasome, CT-L site (Homo sapiens, UniProt P25787+P60900)
# Construct: purchased Boston Biochem or Life Sensors E-360 or ps020
# Assay summary: 20S proteasome small peptide assay, Suc-LLVY-AMC chymotryptic-like probe
# Format: biochemical
# Condition summary: concentration needed to double rate vs vehicle
Measured endpoint: AC200 CT-L site (µM)

Molecule: COC(=O)c1cccc(CN2c3ccccc3Sc3ccc(Cl)cc32)c1
Target under test: purified human 20S proteasome, CT-L site (Homo sapiens, UniProt P25787+P60900)
Measured endpoint: AC200 CT-L site
Numeric result: 2.4
//
Molecule: Nc1cccc(CN2c3ccccc3Sc3ccc(Cl)cc32)c1
Target under test: purified human 20S proteasome, CT-L site (Homo sapiens, UniProt P25787+P60900)
Measured endpoint: AC200 CT-L site
Numeric result: 6.5

[P] O=[N+]([O-])c1cccc(CN2c3ccccc3Sc3ccc(Cl)cc32)c1
[Q] Clc1ccc2c(c1)N(Cc1ccccc1)c1ccccc1S2 [Compound 1, 10-Benzyl-2-chloro-10H-phenothiazine]
[R] CN(C)CCCN1c2ccccc2Sc2ccc(Cl)cc21 [CPZ, chlorpromazine, reference compound]
[S] O=C(CCN1c2ccccc2Sc2ccc(Cl)cc21)N(c1ccc(F)cc1)c1ccc(F)cc1
Request: Output the entries ranked by AC200 CT-L site from maximum down to minimum. In plain terms: list the labels in the order you were asked to.
Result: R, Q, P, S

---

# Target under test: purified human 20S proteasome (Homo sapiens, UniProt P25787+P60900)
# Construct: purchased Boston Biochem or Life Sensors E-360 or ps020
# Assay summary: 20S proteasome small peptide assay, combination of all three fluorogenic substrates (CT-L/Casp-L/T-L)
# Assay type: biochemical
# Condition summary: concentration needed to double (200%) the rate of substrate degradation vs vehicle; three probes combined
# Experimental: In vitro testing, 20S activation: The 20S proteasome activity of the compounds was assessed by utilizing the standard fluorogenic 7-amino-methylcoumarin (AMC) conjugated small peptide substrates that correspond to each of the catalytic sites in the 20S proteasome: chymotryptic-like site (Suc-LLVY-AMC), caspase-like site (Z-LLE-AMC), and trypsin-like site (Boc-LRR-AMC). […]
Measured endpoint: AC200 CT-L/Casp-L/T-L (µM)

Answered examples (3):
Compound: O=C(C=CN1c2ccccc2Sc2ccc(Cl)cc21)Nc1ccccc1 [Compound 17]
AC200 CT-L/Casp-L/T-L, µM: 40

Compound: COc1cccc(CN2c3ccccc3Sc3ccc(Cl)cc32)c1 [Compound 4]
AC200 CT-L/Casp-L/T-L, µM: 1.5

Compound: Nc1cccc(CN2c3ccccc3Sc3ccc(Cl)cc32)c1 [Compound 9]
AC200 CT-L/Casp-L/T-L, µM: 3.6

[1] Clc1ccc2c(c1)N(Cc1ccccc1)c1ccccc1S2 [Compound 1, 10-Benzyl-2-chloro-10H-phenothiazine]
[2] COC(=O)c1cccc(CN2c3ccccc3Sc3ccc(Cl)cc32)c1 [Compound 5]
[3] CN(C)CCCN1c2ccccc2Sc2ccc(Cl)cc21 [CPZ, chlorpromazine, reference compound]
[4] O=C(CCN1c2ccccc2Sc2ccc(Cl)cc21)N(c1ccc(F)cc1)c1ccc(F)cc1 [Compound 19]
Request: Rank order required: AC200 CT-L/Casp-L/T-L, descending. Ranked list of labels, please, in the requested order.
Result: 3, 2, 1, 4
(3: 13.5 µM, 2: 2.4 µM, 1: 1.5 µM, 4: 0.4 µM)

---

# Target under test: purified human 20S proteasome, Casp-L site (Homo sapiens, UniProt P25787+P60900)
# Construct: purchased Boston Biochem or Life Sensors E-360 or ps020
# Assay summary: 20S proteasome small peptide assay, Z-LLE-AMC caspase-like probe
# Assay type: biochemical
# Condition summary: concentration needed to double rate vs vehicle
Measured endpoint: AC200 Casp-L site

Compound: CN(C)CCCN1c2ccccc2Sc2ccc(Cl)cc21 [CPZ, chlorpromazine, reference compound]
Target under test: purified human 20S proteasome, Casp-L site (Homo sapiens, UniProt P25787+P60900)
AC200 Casp-L site: >80 µM

Compound: CN(C)C(=O)CCN1c2ccccc2Sc2ccc(Cl)cc21
Target under test: purified human 20S proteasome, Casp-L site (Homo sapiens, UniProt P25787+P60900)
AC200 Casp-L site: >80 µM

Compound: NC(=O)CCCCN1c2ccccc2Sc2ccc(Cl)cc21
Target under test: purified human 20S proteasome, Casp-L site (Homo sapiens, UniProt P25787+P60900)
AC200 Casp-L site: >80 µM

Compound: CC(=O)Oc1ccc(CN2c3ccccc3Sc3ccc(Cl)cc32)cc1
Target under test: purified human 20S proteasome, Casp-L site (Homo sapiens, UniProt P25787+P60900)
AC200 Casp-L site: >80 µM

Compound: O=C(CCN1c2ccccc2Sc2ccc(Cl)cc21)N(c1ccc(F)cc1)c1ccc(F)cc1
Target under test: purified human 20S proteasome, Casp-L site (Homo sapiens, UniProt P25787+P60900)
AC200 Casp-L site: 1.8 µM

Let's switch to this compound now.
// field: AC200 Casp-L site; key: `Oc1ccc(CN2c3ccccc3Sc3ccc(Cl)cc32)cc1` ; value = >80 µM
